Test system: Enterococcus faecium
Experiment: Antibacterial activity against multidrug-resistant Enterococcus faecium ATCC 51559 expressing VanA after 24 hrs
Assay type: functional
Applied Conditions: ATCC 51559, 24 h
Give MIC for every item shown.
Give bare numbers, in µg/mL.

COc1cc(C(=O)/C=C/c2cccc(O)c2O)c(O)c2c1OC(C)(CCC=C(C)C)C=C2 (centres undefined): 32
COc1cc(C(=O)/C=C/c2cc(O)ccc2O)c(O)c2c1OC(C)(CCC=C(C)C)C=C2 (centres undefined): 32

# input for lookup
Problem: Query for Enterococcus faecium: what MIC does the record show for `CCCCCCCCCC(=O)N[C@@H](Cc1c[nH]c2ccccc12)C(=O)N[C@H](CC(N)=O)C(=O)N[C@@H](CC(=O)O)C(=O)N[C@@H]1C(=O)NCC(=O)N[C@@H](CCCN)C(=O)N[C@@H](CC(=O)O)C(=O)N[C@H](C)C(=O)N[C@@H](CC(=O)O)C(=O)NCC(=O)N[C@H](CO)C(=O)N[C@@H]([C@H](C)CC(=O)O)C(=O)N[C@@H](CC(=O)c2ccccc2N)C(=O)O[C@@H]1C` ?
Result: 16
